# CONDITION_PARAMETERS: in acetone, 288.15 K
MEASUREMENT_NAME: solubility (mole fraction)
Give bare numbers.

Request: # input molecule: Cc1ccc(S(=O)(=O)NC(=O)NN2CC3CCCC3C2)cc1 (stereo unspecified) ; wanted: its solubility (mole fraction)
Response: 0.0121

====

# CONDITION_PARAMETERS: in n-butanol, 318.15 K
MEASUREMENT_NAME: solubility (mole fraction)

Request: # input compound: Cc1ccc(S(=O)(=O)NC(=O)NN2CC3CCCC3C2)cc1 (stereo unspecified) ; wanted: its solubility (mole fraction)
Response: 0.00344

====

# CONDITION_PARAMETERS: in DMF, 293.15 K
MEASUREMENT_NAME: solubility (mole fraction)
Numbers only.

Request: # input molecule: Cc1ccc(S(=O)(=O)NC(=O)NN2CC3CCCC3C2)cc1 (stereo unspecified) ; wanted: its solubility (mole fraction)
Response: 0.0743

The measured values listed here are drawn from BigSolDB 2.1.
